The values you see were collected from PubChem BioAssay AID1745844.

tested on: rodent lifetime carcinogenesis bioassay, tumor incidence TD50; assay: carcinogenic potency in animals, long-term in vivo studies, CPDB compilation (AID 1745844); conditions: rat; strain Fischer 344; females; in feed; site: lung; lesion: alveolar/bronchiolar carcinoma; dosed 103 weeks; study length 104 weeks
result.type: TD50

Query string: TD50 lookup needed for CNc1ccc(N(CCO)CCO)cc1[N+](=O)[O-] , thanks.
Result string: 1190 mg/kg/day

* * *

system: rodent lifetime carcinogenesis bioassay, tumor incidence TD50; assay: carcinogenic potency in animals, long-term in vivo studies, CPDB compilation (AID 1745844); conditions: mouse; strain B6C3F1; males; in feed; site: liver; lesion: hepatocellular adenoma + hepatocellular carcinoma; dosed 79 weeks; study length 93 weeks
result.type: TD50

Query string: TD50 lookup needed for Nc1ccc2c(c1)C(=O)c1ccccc1C2=O , thanks.
Result string: 798 mg/kg/day
